- Target under test: T1, SARS-CoV-2 Receptor Binding Domain (RBD) protein (SARS-CoV-2, UniProt P0DTC2 319-541)
- T1 construct: also called Sars-Cov-2 (COV2)
- Assay comment: SPR (Carterra LSA); scFv captured by anti-V5, RBD as analyte
Readout: Kd (nM)
Entry rule: numbers only, all in nM.

Some binders with known Kd results, for comparison:
Binder	Observed
COVID19_P13_G12 (scFv, V domains shown) VH: QVQLVQSGAEVKKPGSSVKVSCKASGYTFINYEIHWVRQAPGQGLEWMGGITPIFGTANYAQKFQGRVTITADESTSTAYMELSSLRSEDTAVYYCARDTVMGGMDVWGQGTLVTVSS VL: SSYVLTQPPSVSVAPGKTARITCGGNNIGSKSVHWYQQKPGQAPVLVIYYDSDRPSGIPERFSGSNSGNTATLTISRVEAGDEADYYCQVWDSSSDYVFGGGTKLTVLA	6.48
COVID19_P14_F07 (scFv, V domains shown) VH: QVQLVQSGAEVKKPGSSVKVSCKASGGTFSSYAISWMRQAPGQGLEWMGWINPNSGGTNYAQKFQGRVTITADESTSTAYMELSNLRSEDTAVYYCARDTYWGGMDVWGQGTLVTVSS VL: SSYVLTQPPSVSVAPGKTARITCGGNNIGSKSVHWYQQKPGQAPVLVIYYDSDRPSGIPERFSGSNSGNTATLTISRVEAGDEADYYCQVWDSSSFYVFGGGTKLTVLA	17

Attention now turns to another entry.
Req: Quick check: Kd of COVID19_P14_E01 (scFv, V domains shown) VH: QVQLVQSGAEVKKPGSSVKVSCKASGYTFTSYYMHWVRQAPGQGLEWMGGITPIFGTANYAQKFQGRVTITADESTSTAYMELSSLRSEDTAVYYCAVETVMGGMQMWGQGTLVTVSS VL: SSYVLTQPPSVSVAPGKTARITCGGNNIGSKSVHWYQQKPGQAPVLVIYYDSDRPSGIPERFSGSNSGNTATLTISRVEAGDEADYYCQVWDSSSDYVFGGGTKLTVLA ?
Resp: 10.7
